B1: library; a variant is named by its letters at N, in order (parent)
chain: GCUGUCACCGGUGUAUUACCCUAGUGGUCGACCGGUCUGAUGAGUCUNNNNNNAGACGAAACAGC

Variants of: B1
TEST NAME: normalized RNA/DNA level without ligand (relative to sTRSVctl = 100) (log10 (% of sTRSVctl)); ligand: hypoxanthine (xanthine aptamer); higher = less ribozyme self-cleavage, higher mRNA level
CONDITION PARAMETERS: HEK293T, reporter: mCherry (pCS4076), ligand present: no
PROPERTY: normalized RNA/DNA level without ligand (log10)
// return a plain number; no unit text

Guide cases for normalized RNA/DNA level without ligand (log10), answers given:
MUTATION NAME	DATA VALUE
UCUAAG	1.7
GGGAUG	1.32
UUACUU	1.93

input: Query normalized RNA/DNA level without ligand (log10) for CACAAG
output: 1.68

input: Using the record for UUUAAC , state its measured normalized RNA/DNA level without ligand (log10).
output: 1.86

input: Tell me normalized RNA/DNA level without ligand (log10) reported for GUACGC
output: 1.84

input: Give the value of normalized RNA/DNA level without ligand (log10) reported for the following: UAAAUU
output: 1.85

input: Give me measured normalized RNA/DNA level without ligand (log10), please, for this variant: CAUUUA
output: 1.77

input: Read off the recorded normalized RNA/DNA level without ligand (log10) for CAGGAA
output: 1.58

input: Please report normalized RNA/DNA level without ligand (log10) for the following variant: AUCCAU
output: 1.86

input: # return recorded normalized RNA/DNA level without ligand (log10) for input AUCUUC
output: 2.01
